- procedure-summary: clinical
- condition-description: human, in vivo, Average of Urine Samples
measured-property: concentration at 5 day (ng/mL)
Answers are plain numbers, in ng/mL.

For each of the items listed, what is its concentration at 5 day?
1. O=C1O[C@H]([C@@H](O)CO)C(O)=C1O [Ascorbic Acid]
2. Cc1cc2nc3c(=O)[nH]c(=O)nc-3n(C[C@H](O)[C@H](O)[C@H](O)CO)c2cc1C [Riboflavin]
3. CN(C)CCOC(c1ccccc1)c1ccccc1 [Diphenhydramine]
4. CNC(=C[N+](=O)[O-])NCCSCc1ccc(CN(C)C)o1 [Ranitidine]
5. NC(N)=Nc1nc(CSCCC(N)=NS(N)(=O)=O)cs1 [Famotidine]

Reply |
[2030, 2110, 0, 40.7, 1560]

---

- procedure-summary: clinical
- condition-description: human, in vivo, Subject A, Urine Results
measured-property: concentration at 2 day (ng/mL)
Give bare numbers, in ng/mL.

CN(C)CCOC(c1ccccc1)c1ccccc1 [Diphenhydramine]: 0

Ask | Which concentration at 2 day is listed for NC(N)=Nc1nc(CSCCC(N)=NS(N)(=O)=O)cs1 ?
Reply | 0

---

Could you please report measured concentration at 3 day for the items listed next?
- procedure-summary: Multiple Marker Experiment 1: saliva samples, marker concentration by LC-MS/MS;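 further: mean across four subjects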
- condition-description: human, in vivo
Remember to quote the unit after the number.

For each of the items listed, what is its concentration at 3 day?
1. COc1ccc2c(c1)[C@]13CCCC[C@@H]1[C@H](C2)N(C)CC3
2. CN(C)C(=O)C(CCN1CCC(O)(c2ccc(Cl)cc2)CC1)(c1ccccc1)c1ccccc1 [Loperamide]
3. O=C1O[C@H]([C@@H](O)CO)C(O)=C1O

Reply |
1. 0 µg/mL
2. 0.000431 µg/mL
3. 0.0328 µg/mL

For each of the items listed, what is its concentration at 3 day?
1. CN(C)CCOC(c1ccccc1)c1ccccc1 [Diphenhydramine]
2. CNC(=C[N+](=O)[O-])NCCSCc1ccc(CN(C)C)o1
3. Cc1cc2nc3c(=O)[nH]c(=O)nc-3n(C[C@H](O)[C@H](O)[C@H](O)CO)c2cc1C
4. NC(N)=Nc1nc(CSCCC(N)=NS(N)(=O)=O)cs1

Reply |
["0 µg/mL", "0.00156 µg/mL", "0.0582 µg/mL", "0 µg/mL"]

---

- procedure-summary: clinical
- condition-description: human, in vivo, Subject D, Urine Results
Could you please report measured concentration at 8 day for the items listed next?
Answers are plain numbers, in ng/mL.

Sample records with concentration at 8 day:
CN(C)CCOC(c1ccccc1)c1ccccc1 [Diphenhydramine]: 75300
O=C1O[C@H]([C@@H](O)CO)C(O)=C1O [Ascorbic Acid]: 4320

Shift focus to the following entry.
Ask | Which concentration at 8 day is listed for NC(N)=Nc1nc(CSCCC(N)=NS(N)(=O)=O)cs1 [Famotidine] ?
Reply | 27.8

---

Could you please report measured concentration at 1 day for the items listed next?
- procedure-summary: clinical
- condition-description: human, in vivo, Subject B, Urine Results
One number for each entry, in ng/mL.

CNC(=C[N+](=O)[O-])NCCSCc1ccc(CN(C)C)o1: 0

For each of the items listed, what is its concentration at 1 day?
1. NC(N)=Nc1nc(CSCCC(N)=NS(N)(=O)=O)cs1
2. CN(C)CCOC(c1ccccc1)c1ccccc1 [Diphenhydramine]

Reply |
0
0
